biological target: pooled human IgG (human IgG1, 2, 3 and 4)
measured endpoint: Enzyme Activity Endpoint Assay (purified): scIgG (ng/µL)
Express your answer in ng/µL, writing the number without its unit.

QUERY: Could you tell me which Enzyme Activity Endpoint Assay (purified): scIgG is on file for PRT-398 (protein) MVTSVWTKGVTPPADFTQGEDVFHAPYVANQGWYDITKTFNGKDDLLCGAATAGNMLHWWFDQNKEYIEAYLKKHPEKQKIMFGDQELLDVRKAINTKGSQKNSELFNYFRDKAFPNLSARRLGVMPDLVLDMFINGYYLNVTKTQTTDVNRTYQEKDKRGGIFDAVFTRGDQSKLLTSRHDFKEKGLKEISDLIKQELTEGKALGLSHTYANVRINHVINLWGADFDSDGNLKAIYVTDSDSNASIGMKKYDVGVNSAGKVAISAKEIKEDNIGAQVLGLFTLSTGQDIWNQTN ?
RESULT: 196

QUERY: Moving on to PRT-445 (protein) MSQTEDSESLQRLRDIEDFQAEKKKQNVVYTKWLDGVDVKDHDFRKIVDGNIAYYATPLLNGRGFYDINKDFNRDSDKCAAAVAANMFHYWLDRNRDNVDRFLRQNPEKHGIIELPDGQLKLSDFLNTYESDDGYRDKSKLFDFISNNFNGPVWTDKLLDNYINGYAYNYKYGRTIEDSTKNTSKINFFKEVFNEKILTNNHSIRNQNEFSVLLSEALYTGKAIGLSYGPAGLRHSLGHIISVWGADLDADGNVVAIYVTDSDDKKLTIGDERVGLKRYKISTDDEGRLRLTAYEETHNTGGQIRGLWTLDTGKQAWADYFDKTEQTGTDQAEQ
RESULT: 259

QUERY: Same for PRT-407 (protein) MVTSVWTKGVTPPADFTQGEDVFHAPYVANQGWYDITKTFNGKDDLLCGAATAGNMLHWWFDQNKEYIEAYLKKHPEKQKIIFGDQELLDVRKAINTKGSQKNSELFNYFRDKAFPNLSARRLGVMPDLVLDMFINGYYLNVTKTQTTDVNRTYQEKDKRGGIFDAVFTRGDQSKLLTSRHDFKEKGLKEISDLIKQELTEGKALGLSHTYANVRINHVINLWGADFDSDGNLKAIYVTDSDSNASIGMKKYFVGVNSAGKVAISAKEIKEDNIGAQVLGLFTLSTGQDIWNQTN
RESULT: 396

QUERY: Item: PRT-605 (protein) MQITSVWTKGVTPLTPEQFRYNNEDVIHAPYLAHQGWYDITKAFDGKDNLLCGAATAGNMLHWWFEQNKTEIEAYLSKYGDTQKIIFNNQELFDLKAAIDTKDSQTNSQLFNYFRDKAFPNLSARQLGVMPDLVLDMFINGYYLNVFKTQSTDVNRPYQDKDKRGGIFDAVFTRGDQTTLLTARHDLKNKGLNDISTIIKQELTEGRALALSHTYANVSISHVINLWGADFNAEGNLEAIYVTDSDANASIGMKKYFVGINAHGHVAISAKKIEGENIGAQVLGLFTLSSGKEIWQKLSLEHHHHHH
RESULT: 157

QUERY: Now try PRT-635 (protein) MQITSVWTKGVTPLTPDQFTNQGEDVIHAPYTPNQGWYDITKAFDGKDNLLCGAATAGNMLHWWFDQNKTEIEAYLSKHPEKQKIIFNNQELFDLKAAIDTKDSQTNSQLFNYFRDKAFPNLSARQLGVMPDLVLDMFINGYYLNVFKTQSTDVNRPYQDKDKRGGIFDAVFTRGDQTTLLTARHDLKNKGLNDISTIIKQELTEGKALALSHTYANVSISHVINLWGADFNAEGNLEAIYVTDSDANASIGMKKYFVGINAHGHVAISAKKIEGENIGAQVLGLFTLSSGKDIWQKLSLEHHHHHH .
RESULT: 0

QUERY: Now give it for PRT-690 (protein) MQITSVWTKGVTPPTPEQFRYNNEDVIHAPYLANQGWYDITKTFNGKDNLLCGAATAGNMLHWWFDQNKTEIEAYLSKYPEKQKIIFNNQELFDLRAAINTKDSQTNSQLFNYFRDKAFPNLSARQLGVMPDLVLDMFINGYYLNVFKTQSTDVNRPYQDKDKRGGIFDAVFNRGDQTTLLTARHDLKNKTLNDISTLIKQELSSGKALALSHTYANVSISHVINLWGADFNAEGNLEAIYVTDSDANSNIGMKKYKVGVNAHGKVAISAKKIEGENIGAQVLGLFTLSSGKDIWQKLSLEHHHHHH too.
RESULT: 0

QUERY: What do you have for PRT-650 (protein) MQITSVWTKGVTPLTPEQFRYNNEDVIHAPYLAHQGWYDITKAFDGKDNLLCGAATAGNMLHWWFDQNKTEIEAYLSKHPEKQKIIFNNQKLFDLKAAIDTKDSQTNSQLFNYFRDKAFPNLSARQLGVMPDLVLDMFINGYYLNVTKTQSTDVNRPYQTKDPRGGIFDAVFTRGDQTTLLTARHDLKNKGLNDISTIIKQELTEGRALALSHTYANVSISHVINLWGADFNAEGNLEAIYVTDSDANASIGMKKYFVGINAHGHVAISAKKIEGENIGAQVLGLFTLSSGKDIWQKLSLEHHHHHH ?
RESULT: 600

QUERY: Okay, and PRT-633 (protein) MQITSVWTKGVTPLTPEQFTNNNEDVIHAPYKANQGWYDITKAFDGKDNLLCGAATAGNMLHWWFDQNKTEIEAYLSKHPEKQKIIFNNQELFDLKAAIDTKDSQTNSQLFNYFRDKAFPNLSARQLGVMPDLVLDMFINGYYLNVFKTQSTDVNRPYQDKDKRGGIFDAVFTRGDQTTLLTARHDLKNKGLNDISTIIKQELTEGKALALSHTYANVSISHVINLWGADFNAEGNLEAIYVTDSDANASIGMKKYFVGINAHGHVAISAKKIEGENIGAQVLGLFTLSSGKDIWQKLSLEHHHHHH ?
RESULT: 0
